Attribution: ChEMBL document CHEMBL3507680

procedure_details: Human HepG2 cell viability assay in 384 well format
Assay type: toxicity, cell-based
Parameters: dose 125 nL, time 70.5 hour; concentration not given beside the values
condition_notes: HepG2 cells, read-out: Inhibition
readout_kind: cytotoxicity at 70.5 h (%)
Hi! Could you send only the number? It should be in %, unit omitted.

Examples from the recorded data:
compound	cytotoxicity at 70.5 h / %
CCN(Cc1ccoc1)C(=O)c1cc2c(c(S(N)(=O)=O)c1)CCC2	-8.02
CCc1nc(N2CCC3(CCC(=O)N(Cc4ccncc4)C3)CC2)no1	10.6
CN1CCCCC1C(=O)N1CCN(c2ccccc2C#N)CC1 (centres undefined)	-2.64
Cc1ccccc1CN1CCC(NCC2CNc3ccnn3C2)CC1 (centres undefined)	0.228
O=C(C1CC12CCC2)N1CCC(n2cc(-c3ccsc3)nn2)CC1 (centres undefined)	-9.29
COc1ccccc1CNC(=O)CNCCn1cc(C)cn1	-13.5
Cc1cnc(C(=O)NCc2ccc3c(c2)CCCN3C)cn1	-4.01
Cc1ccc(C(=O)N2CCOC(c3ncc(CN(C)C)[nH]3)C2)cc1F (centres undefined)	-3.52
Cc1c(CNC(=O)Nc2cccc3c2CCN3C)cnn1C	-3.95
CS(=O)(=O)N1C[C@H](C(=O)Nc2cnccn2)C[C@H]2OCC[C@H]21	24.9

Let us examine a further case.
# input Output cytotoxicity at 70.5 h of CC(C)c1nnc(CCC(=O)N2CCCC(c3cnccn3)C2)o1 (centres undefined)
# output -9.44

----------
procedure_details: Human HepG2 cell viability assay in 384 well format
Format: toxicity, cell-based
Set-up: dose 125 nL, time 70.5 hour; concentration not given beside the values
condition_notes: HepG2 cells, read-out: Inhibition
Measured cytotoxicity at 70.5 h values are reported for all entries that follow.
Hi! Could you send only the number? It should be in %, unit omitted.

molecule	cytotoxicity at 70.5 h, %
CCOC(=O)N(C)C1CCN(Cc2csc(C)n2)CC1	2.22
CCc1cnc(CN2C(=O)CC3(CCSC3)C2=O)o1 (stereo unspecified)	11.4
Cc1ccccc1CNCC(O)c1ccc(OC(C)C)cc1 (stereo unspecified)	-0.135

# input Output cytotoxicity at 70.5 h of CCC(O)CNc1ccc(-c2nc(CC(C)C)no2)cn1 (stereo unspecified)
# output -14.3

# input Output cytotoxicity at 70.5 h of Cc1ccc(C2CN(CCCS(=O)(=O)C(C)C)CCO2)c(C)c1 (stereo unspecified)
# output -2.16

# input Output cytotoxicity at 70.5 h of Cc1cccc(COC2COC3(CCN(S(C)(=O)=O)CC3)C2)n1 (stereo unspecified)
# output -0.691

----------
Measured cytotoxicity at 70.5 h values are reported for all entries that follow.
procedure_details: Human HepG2 cell viability assay in 384 well format
Type: toxicity, cell-based
Design: dose 125 nL, time 70.5 hour; concentration not given beside the values
condition_notes: HepG2 cells, read-out: Inhibition
Hi! Could you send only the number? It should be in %, unit omitted.

Examples from the recorded data:
molecule	cytotoxicity at 70.5 h [%]
O=C(NC1CC1)c1ccc(SCc2cscn2)cc1	-9.79
Cc1cc(C)nc(CN(C)C(=O)c2cccc(CCC(C)(C)O)c2)c1	-4.1
CC(C)CN1CCN(C)C2(CCN(Cc3ccsc3)CC2)C1=O	0.403
CCSCCC(=O)NC1CCN(C(C)c2ccccc2)CC1 (stereo unspecified)	-10.7
COc1cc(CCC(=O)NCC2CC2)ccc1OCC(F)(F)F	-11.6
O=S1(=O)CCC(S(=O)(=O)c2cccc(S(=O)(=O)N3CCCC3)c2)C1 (stereo unspecified)	-12.1

# input Output cytotoxicity at 70.5 h of O=C(NCc1ccccc1F)Nc1ccn(CCN2CCOCC2)n1
# output -15.3

# input Output cytotoxicity at 70.5 h of O=C(Nc1ccc(Cl)cn1)c1nn(C2CCS(=O)(=O)C2)c2c1CCCC2 (stereo unspecified)
# output -23
